Recorded values, source patent US8017612B2.

SYSTEM TESTED: HCV polymerase (NS5B) type 1a (Hepatitis C virus genotype 1a, UniProt P26664)
Construct: made in house; host or cells: Escherichia coli (by the 'similar method' of the 1b enzyme)
TEST NAME: Assay of enzyme (HCV polymerase) inhibitory activity, type 1a enzyme
Type: biochemical, HCV type 1a (cloned from the blood of patients)
COND: HCV polymerase inhibitory activity (IC50), 1a, type 1a enzyme 1.5 μg/ml, 25° C., 60 min
pIC50: −log10 of the molar value.
QUANTITY KIND: pIC50

Some compounds with recorded pIC50:
1. CCCc1ccc(CNC(=O)[C@H]2CN(c3nc(C)c(CNC)s3)CCN2S(=O)(=O)c2ccc(OC(F)(F)F)cc2)cc1 [Example 506] | > 7.00
2. CC(C)(C)c1ccc(CNC(=O)[C@H]2CN(c3cnc(CN4CCOCC4)cn3)CCN2S(=O)(=O)c2ccc(OC(F)(F)F)cc2)cc1 [Example 593] | > 7.00
3. CCC(F)(F)c1ccc(CNC(=O)[C@H]2CN(c3cnc(C#N)cn3)CCN2S(=O)(=O)c2ccc(OC(F)(F)F)cc2)cc1 [Example 591] | > 7.00
4. CC(=O)N1CCN(S(=O)(=O)c2ccc(I)cc2)C(C(=O)NCc2ccc(C(F)(F)F)cc2)C1 (stereo not drawn) [Example 61] | < 6.00
5. CC(=O)N1CCN(S(=O)(=O)c2ccc(C(C)C)cc2)C(C(=O)NCCc2ccccc2)C1 (stereo not drawn) [Example 118] | < 6.00

// each listed compound needs a value for pIC50
1. CC(=O)N1CCN(S(=O)(=O)c2ccc(C(C)C)cc2)C(C(=O)NCc2ccc(S(N)(=O)=O)cc2)C1 (stereo not drawn) [Example 38]
2. O=C(NCc1nc2ccccc2o1)[C@H]1CN(c2cnc3cncnc3n2)CCN1S(=O)(=O)c1ccc(OC(F)(F)F)cc1 [Example 639]
3. O=C(O)c1cnc(N2CCN(S(=O)(=O)c3ccc(OC(F)(F)F)cc3)[C@@H](C(=O)NCc3ccc(OC(F)(F)F)cc3)C2)cn1 [Example 386]
4. CC(=O)N1CCN(S(=O)(=O)c2ccc(OC(F)(F)F)c(CCC(=O)O)c2)[C@@H](C(=O)NCc2ccc(C(C)C)cc2)C1 [Example 324]
5. CCCc1ccc(CNC(=O)[C@H]2CN(c3cnc4cncnc4n3)CCN2S(=O)(=O)c2ccc(OC(F)(F)F)cc2)cc1 [Example 574]

< 6.00
< 6.00
> 7.00
> 7.00
> 7.00

Kindly give each listed record's pIC50.
1. CC(=O)N1CCN(S(=O)(=O)c2ccc(C(C)C)cc2)[C@@H](C(=O)NCc2ccc(C(C)(C)C(=O)N(C)C)cc2)C1 [Example 233]
2. CC(C)c1ccc(S(=O)(=O)N2CCN(C(=O)Cc3ccccc3)CC2C(=O)NCc2ccc(C(F)(F)F)cc2)cc1 (stereo not drawn) [Example 124]
3. CC(C)c1ccc(CNC(=O)[C@H]2CN(C(=O)Nc3cccc(Cl)c3)CCN2S(=O)(=O)c2ccc(C(F)(F)F)cc2)cc1 [Example 270]
4. CCCc1ccc(CNC(=O)[C@H]2CN(C(C)=O)CCN2S(=O)(=O)c2ccc(OC(F)(F)F)cc2)c(=O)[nH]1 [Example 646]
5. CC(=O)N1CCN(S(=O)(=O)c2ccc(C(C)C)cc2)C(C(=O)NCc2ccc(N(C)C)cc2)C1 (stereo not drawn) [Example 37]
6. CC(C)c1ccc(CNC(=O)[C@H]2CN(C(=O)Cn3cccn3)CCN2S(=O)(=O)c2ccc(C(F)(F)F)cc2)cc1 [Example 228]
7. CCC(F)(F)c1ccc(CNC(=O)[C@H]2CN(c3nc4nsnc4nc3O)CCN2S(=O)(=O)c2ccc(OC(F)(F)F)cc2)cc1 [Example 647]
8. COC(=O)c1ccc(N2CCN(S(=O)(=O)c3ccc(C(F)(F)F)cc3)[C@@H](C(=O)NCc3ccc(C(C)C)cc3)C2)nc1 [Example 303]

1: < 6.00; 2: < 6.00; 3: < 6.00; 4: < 6.00; 5: 6.00 to 7.00; 6: 6.00 to 7.00; 7: < 6.00; 8: > 7.00
